tested on: Zymoseptoria tritici; test: Leaf blotch of wheat (SEPTTR) disease control on wheat seedlings; type: in vivo; set-up: key: A: > 80; B: ≤ 80; C: Not Tested; D: No Activity Observed in the Reported Assay; settings: HV application at 100 ppm; 3 Day Curative; wheat leaf blotch
reported.endpoint: SEPTTR 3DC disease control rating, HV activity

# compound, obs.value
rows = [
    ("CCC(CC)C(Oc1ccc(Cl)cc1)C(C)OC(=O)C(CC(C)C)NC(=O)c1nccc(OC)c1O (stereo not shown) [Cmpd 427]", "D"),
    ("CC[C@@H](CCOC)[C@@H](Oc1ccccc1)[C@H](C)OC(=O)[C@@H](C)NC(=O)c1nccc(OC)c1O [Cmpd 308]", "B (≤ 80)"),
    ("CCCOC[C@@H](Oc1ccccc1)[C@H](C)OC(=O)[C@H](CC)NC(=O)c1nccc(OC)c1O [Cmpd 314]", "D"),
    ("CCC(CC)C(Oc1cccc(F)c1)C(C)OC(=O)C(CC(C)C)NC(=O)c1nccc(OC)c1O (stereo not shown) [Cmpd 426]", "D"),
    ("CCC(CC)[C@@H](OCC(C)C)[C@H](C)OC(=O)[C@H](C)NC(=O)c1nccc(OC)c1O [Cmpd 354]", "B (≤ 80)"),
    ("CCCOC(CC)C(Oc1ccccc1)C(C)OC(=O)C1(NC(=O)c2nccc(OC)c2O)CC1 (stereo not shown) [Cmpd 416]", "D"),
    ("CCC(CC)C(Oc1ccc(Cl)cc1Cl)C(C)OC(=O)C(CC(C)C)NC(=O)c1nccc(OC)c1O (stereo not shown) [Cmpd 430]", "D"),
]

// provenance: patent US20180000085A1
